studySystem: ATP-dependent translocase ABCB1 (Homo sapiens, UniProt P08183)
Sequence (P08183 whole entry): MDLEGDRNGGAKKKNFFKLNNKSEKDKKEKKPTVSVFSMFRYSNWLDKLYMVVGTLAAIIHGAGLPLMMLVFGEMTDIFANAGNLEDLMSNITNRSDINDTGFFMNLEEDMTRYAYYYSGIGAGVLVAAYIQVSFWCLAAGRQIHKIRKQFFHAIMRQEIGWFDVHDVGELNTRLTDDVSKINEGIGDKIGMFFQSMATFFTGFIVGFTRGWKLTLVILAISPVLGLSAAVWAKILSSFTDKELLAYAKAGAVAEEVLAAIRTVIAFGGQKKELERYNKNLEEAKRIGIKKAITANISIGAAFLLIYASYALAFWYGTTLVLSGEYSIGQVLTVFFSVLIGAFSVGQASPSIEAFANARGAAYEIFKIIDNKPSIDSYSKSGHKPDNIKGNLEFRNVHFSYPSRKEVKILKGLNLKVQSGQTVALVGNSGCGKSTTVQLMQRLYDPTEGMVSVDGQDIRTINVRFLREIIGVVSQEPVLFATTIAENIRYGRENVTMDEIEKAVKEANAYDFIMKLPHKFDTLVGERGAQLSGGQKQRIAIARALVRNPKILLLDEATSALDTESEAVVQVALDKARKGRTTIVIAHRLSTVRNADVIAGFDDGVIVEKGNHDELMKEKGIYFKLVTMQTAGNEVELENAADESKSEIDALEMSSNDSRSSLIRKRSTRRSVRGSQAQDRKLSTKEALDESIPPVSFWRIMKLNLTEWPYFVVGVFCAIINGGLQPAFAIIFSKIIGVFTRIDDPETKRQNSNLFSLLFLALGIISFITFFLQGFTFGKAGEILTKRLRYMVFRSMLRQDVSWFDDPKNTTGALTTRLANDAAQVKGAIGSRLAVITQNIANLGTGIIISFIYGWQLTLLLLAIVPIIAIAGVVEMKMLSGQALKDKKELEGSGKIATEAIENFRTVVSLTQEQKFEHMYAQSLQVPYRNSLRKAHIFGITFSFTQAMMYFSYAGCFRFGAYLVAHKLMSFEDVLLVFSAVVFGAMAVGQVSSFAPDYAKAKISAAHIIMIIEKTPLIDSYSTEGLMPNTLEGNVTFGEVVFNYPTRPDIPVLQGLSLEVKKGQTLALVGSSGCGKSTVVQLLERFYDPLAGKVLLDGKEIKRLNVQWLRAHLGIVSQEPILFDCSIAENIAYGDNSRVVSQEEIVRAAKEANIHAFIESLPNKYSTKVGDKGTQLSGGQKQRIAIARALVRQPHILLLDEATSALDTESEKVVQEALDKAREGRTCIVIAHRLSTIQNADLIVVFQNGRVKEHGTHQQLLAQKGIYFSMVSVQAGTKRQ
testName: Inhibition of P-gp in human K562/DOX cells assessed as drug level causing maximum increase in nuclear pirarubicin concentration incubated for 30 mins by fluorescence based assay relative to control
Type: cell-based
measurementConditions: 0.5 h
readoutName: Alpha max
Numbers only.

Recorded Alpha max, per entry:
COc1cc(/C=C/C(=O)OCCCCCCCN(C)C[C@H](C)COC(=O)c2c3ccccc3cc3ccccc23)cc(OC)c1OC: 0.99
COc1cc(/C=C/C(=O)OC[C@H](C)CN(C)CCCOC(=O)c2cc(OC)c(OC)c(OC)c2)cc(OC)c1OC: 0.99
COc1cc(/C=C/C(=O)OCCCN(C)C[C@@H](C)COC(=O)c2cc(OC)c(OC)c(OC)c2)cc(OC)c1OC: 0.99
COc1cc(/C=C/C(=O)OCCCCCN(C)C[C@H](C)COC(=O)c2c3ccccc3cc3ccccc23)cc(OC)c1OC: 0.75
COc1cc(/C=C/C(=O)OC[C@@H](C)CN(C)CCCOC(=O)c2c3ccccc3cc3ccccc23)cc(OC)c1OC: 0.79
COc1cc(/C=C/C(=O)OCCCCCN(C)C[C@H](C)COC(=O)c2cc(OC)c(OC)c(OC)c2)cc(OC)c1OC: 0.75

Each molecule below has a reported value. Please supply its Alpha max.
1. COc1cc(/C=C/C(=O)OC[C@H](C)CN(C)CCCCCCCOC(=O)c2cc(OC)c(OC)c(OC)c2)cc(OC)c1OC
2. COc1cc(/C=C/C(=O)OCCCCCN(C)C[C@@H](C)COC(=O)c2c3ccccc3cc3ccccc23)cc(OC)c1OC

Response given:
[0.81, 0.89]

Numbers sourced from ChEMBL document CHEMBL4359914.
